# test summary: Pharmacokinetics (plasma and urine) of ascending multiple oral doses in healthy volunteers
# Type: in vivo, human
# assay setup: both sexes, human, urine, oral, 50 mg, 50 mg QD, Day 14, urine (n = 8); geometric mean; read-out: CLR (renal clearance of drug)
measurement name: CL renal (mL/min)
Express it in mL/min; write the number only.

So, O[C@H]1CC[C@H](Nc2ncc3nc(Nc4c(F)cc(F)cc4F)n([C@H]4CCOC4)c3n2)CC1 [Compound I] ? Its CL renal was 11.8

---

# test summary: Toxicokinetics in pregnant female rats
# Type: in vivo, rat
# assay setup: female, Crl:CD(SD), rat, plasma, 100 mg/kg/day; pregnant rats, 100 mg/kg/d oral, Gestation Day 6
measurement name: Cmax (ng/mL)
Express your answer in ng/mL, writing the number without its unit.

Looking up O[C@H]1CC[C@H](Nc2ncc3nc(Nc4c(F)cc(F)cc4F)n([C@H]4CCOC4)c3n2)CC1 , I found its Cmax recorded as 6790
